B1: GNAI1 (parent)
chain: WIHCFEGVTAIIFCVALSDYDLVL

Variants of: B1
Test: protein stability index of a GFP-peptide fusion (GPS, HEK-293T) (PSI 1-6); higher = more stable;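 note: lentivirally expressed fusions sorted by FACS into six bins by GFP to DsRed ratio, PSI derived from sequencing read proportions per bin multiplied by bin number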
Conditions: c terminus: a fixed tail appended
Decide by protein stability index: equal to or exceeding 3 means criterion met, less means criterion not met.

   variant_spec     assigned_label
0          F13G  criterion not met
1          S18V  criterion not met
2           V8G  criterion not met

Q: Decide: protein stability index of L17K >= 3?
A: criterion not met

Q: Decide: protein stability index of D19P >= 3?
A: criterion met

Q: Decide: protein stability index of D19I >= 3?
A: criterion not met

Q: Decide: protein stability index of W1Y >= 3?
A: criterion met

Q: Decide: protein stability index of S18N >= 3?
A: criterion not met
